# Tested on: Victoria/3/75 (H3N2)
# test-details: microbe, parasite or virus in culture
# Type: cell-based
# measurement-setup: Influenza A virus, H3N2, MDCK, read-out: 50% effective concentration (EC50)
pEC50: −log10 of the molar value.
result-type: pEC50

The recorded pEC50 for CCC(CC)O[C@@H]1C=C(C(=O)O)C[C@H](N)[C@H]1NC(C)=O [Oseltamivir Carboxylate, Oseltamivir carboxylate] is < 6.49

---

# Tested on: Brisbane/10/2007 (H3N2)
# test-details: microbe, parasite or virus in culture
# Format: cell-based
# measurement-setup: Influenza A virus, H3N2, MDCK, read-out: 50% effective concentration (EC50)
pEC50: −log10 of the molar value.
result-type: pEC50

The recorded pEC50 for CCC(CC)O[C@@H]1C=C(C(=O)O)C[C@H](N)[C@H]1NC(C)=O [Oseltamivir Carboxylate, Oseltamivir carboxylate] is < 6.49
